These entries and their values trace back to patent US12371400B2.

Biological target: Cathepsin K (Homo sapiens, UniProt P43235)
Sequence (P43235 115-329): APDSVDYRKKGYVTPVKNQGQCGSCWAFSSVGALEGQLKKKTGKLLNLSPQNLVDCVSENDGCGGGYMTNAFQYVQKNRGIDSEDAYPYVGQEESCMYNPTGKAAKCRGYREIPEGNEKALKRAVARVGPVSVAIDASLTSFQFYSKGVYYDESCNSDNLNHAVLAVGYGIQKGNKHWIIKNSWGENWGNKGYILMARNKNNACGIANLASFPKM
Test: LC-MS of intact CatK and CatK-inhibitor complexes
Type: binding
Settings: CatK 3 μM, inhibitor 100 μM, 37° C., 6 h; deconvoluted ESI mass
endpointLabel: Measured mass complex

compound | experimentalTarget | Measured mass complex
CC(C)(F)C[C@H](N[C@@H](c1ccc(-c2ccc(S(C)(=O)=O)cc2)cc1)C(F)(F)F)C(=O)NC1(C#N)CC1 [ODN, reference compound] | Cathepsin K (Homo sapiens, UniProt P43235) | 24244
C#CCNC(=O)[C@H](CC(C)(C)F)N[C@@H](c1ccc(-c2ccc(S(C)(=O)=O)cc2)cc1)C(F)(F)F | Cathepsin K (Homo sapiens, UniProt P43235) | 24217
C#CC(C)NC(=O)[C@H](CC(C)(C)F)N[C@@H](c1ccc(-c2ccc(S(C)(=O)=O)cc2)cc1)C(F)(F)F (mixture of isomers) | Cathepsin K (Homo sapiens, UniProt P43235) | 24231
CC(C)(F)C[C@H](N[C@@H](c1ccc(-c2ccc(S(C)(=O)=O)cc2)cc1)C(F)(F)F)C(=O)NCC#CBr | Cathepsin K (Homo sapiens, UniProt P43235) | 24296
